Data origin: ChEMBL document CHEMBL1255213

# maps each entry to its MIC
# Tested on: Enterococcus faecium
# procedureText: Antimicrobial activity against Enterococcus faecium NCTC 12201 by standard serial-dilution technique
# Assay type: functional
readoutName: MIC (µg/mL)

* C#CCN1CCN(C(=O)C[C@@H](NC(=O)[C@@H](NC(=O)[C@@H](/N=C2\NCC(=O)N3CC[C@@H](C)[C@H]3C(=O)N[C@@H](C(C)C)C(=O)N[C@H]2C(C)(C)C)C(C)(C)C)[C@@H](C)c2ccccc2)c2nccs2)CC1 | 16
* CCC(=O)C[C@@H](NC(=O)[C@@H](NC(=O)[C@@H](/N=C1\NCC(=O)N2CC[C@@H](C)[C@H]2C(=O)N[C@@H](C(C)C)C(=O)N[C@H]1C(C)(C)C)C(C)(C)C)[C@@H](C)c1ccccc1)c1nccs1 | 2
* CC(C)[C@@H]1NC(=O)[C@@H]2[C@H](C)CCN2C(=O)CN/C(=N\[C@H](C(=O)N[C@H](C(=O)N[C@H](CNC(=O)N2CCSC2)c2nccs2)[C@@H](C)c2ccccc2)C(C)(C)C)[C@H](C(C)(C)C)NC1=O | 4
* CC(C)[C@@H]1NC(=O)[C@@H]2[C@H](C)CCN2C(=O)CN/C(=N\[C@H](C(=O)N[C@H](C(=O)N[C@H](CC(=O)N2CCSC2)c2nccs2)[C@@H](C)c2ccccc2)C(C)(C)C)[C@H](C(C)(C)C)NC1=O | 8
* CC(C)[C@@H]1NC(=O)[C@@H]2[C@H](C)CCN2C(=O)CN/C(=N\[C@H](C(=O)N[C@H](C(=O)N[C@H](CC(=O)N2CCN(Cc3ccccc3)CC2)c2nccs2)[C@@H](C)c2ccccc2)C(C)(C)C)[C@H](C(C)(C)C)NC1=O | 4
* COC(=O)C[C@@H](NC(=O)[C@@H](NC(=O)[C@@H](/N=C1\NCC(=O)N2CC[C@@H](C)[C@H]2C(=O)N[C@@H](C(C)C)C(=O)N[C@H]1C(C)(C)C)C(C)(C)C)[C@@H](C)c1ccccc1)c1nccs1 | 1

----------
# System: Enterococcus faecium
# procedureText: Antimicrobial activity against Enterococcus faecium NCTC 12201 by standard serial-dilution technique
# Type: functional
# maps each entry to its MIC
readoutName: MIC (µg/mL)

• CC(C)[C@@H]1NC(=O)[C@@H]2[C@H](C)CCN2C(=O)CN/C(=N\[C@H](C(=O)N[C@H](C(=O)N[C@H](CC(=O)O)c2nccs2)[C@@H](C)c2ccccc2)C(C)(C)C)[C@H](C(C)(C)C)NC1=O = 128
• CC(C)[C@@H]1NC(=O)[C@@H]2[C@H](C)CCN2C(=O)CN/C(=N\[C@H](C(=O)N[C@H](C(=O)N[C@H](CC(=O)NCc2ccccc2)c2nccs2)[C@@H](C)c2ccccc2)C(C)(C)C)[C@H](C(C)(C)C)NC1=O = 8

----------
# Tested on: Staphylococcus aureus
# procedureText: Antimicrobial activity against methicillin-resistant Staphylococcus aureus HH1 by standard serial-dilution technique
# Assay type: functional
readoutName: MIC

• CCC(=O)C[C@@H](NC(=O)[C@@H](NC(=O)[C@@H](/N=C1\NCC(=O)N2CC[C@@H](C)[C@H]2C(=O)N[C@@H](C(C)C)C(=O)N[C@H]1C(C)(C)C)C(C)(C)C)[C@@H](C)c1ccccc1)c1nccs1 = 2 µg/mL
• CCCC(=O)C[C@@H](NC(=O)[C@@H](NC(=O)[C@@H](/N=C1\NCC(=O)N2CC[C@@H](C)[C@H]2C(=O)N[C@@H](C(C)C)C(=O)N[C@H]1C(C)(C)C)C(C)(C)C)[C@@H](C)c1ccccc1)c1nccs1 = 1 µg/mL
• CCCSC(=O)C[C@@H](NC(=O)[C@@H](NC(=O)[C@@H](/N=C1\NCC(=O)N2CC[C@@H](C)[C@H]2C(=O)N[C@@H](C(C)C)C(=O)N[C@H]1C(C)(C)C)C(C)(C)C)[C@@H](C)c1ccccc1)c1nccs1 = ≤ 0.25 µg/mL
• CC(C)[C@@H]1NC(=O)[C@@H]2[C@H](C)CCN2C(=O)CN/C(=N\[C@H](C(=O)N[C@H](C(=O)N[C@H](CC(=O)N2CCSC2)c2nccs2)[C@@H](C)c2ccccc2)C(C)(C)C)[C@H](C(C)(C)C)NC1=O = 8 µg/mL

----------
# maps each entry to its MIC
# Tested on: Staphylococcus aureus
# procedureText: Antimicrobial activity against methicillin-resistant Staphylococcus aureus HH1 by standard serial-dilution technique
# Type: functional
readoutName: MIC (µg/mL)

- CC(C)[C@@H]1NC(=O)[C@@H]2[C@H](C)CCN2C(=O)CN/C(=N\[C@H](C(=O)N[C@H](C(=O)N[C@H](CNC(=O)NCc2ccccc2)c2nccs2)[C@@H](C)c2ccccc2)C(C)(C)C)[C@H](C(C)(C)C)NC1=O: 16
- CC(C)[C@@H]1NC(=O)[C@@H]2[C@H](C)CCN2C(=O)CN/C(=N\[C@H](C(=O)N[C@H](C(=O)N[C@H](CNC(=O)N2CCSC2)c2nccs2)[C@@H](C)c2ccccc2)C(C)(C)C)[C@H](C(C)(C)C)NC1=O: 4
- CC(C)[C@@H]1NC(=O)[C@@H]2[C@H](C)CCN2C(=O)CN/C(=N\[C@H](C(=O)N[C@H](C(=O)N[C@H](CC(=O)NN)c2nccs2)[C@@H](C)c2ccccc2)C(C)(C)C)[C@H](C(C)(C)C)NC1=O: 16
- CC(C)SC(=O)C[C@@H](NC(=O)[C@@H](NC(=O)[C@@H](/N=C1\NCC(=O)N2CC[C@@H](C)[C@H]2C(=O)N[C@@H](C(C)C)C(=O)N[C@H]1C(C)(C)C)C(C)(C)C)[C@@H](C)c1ccccc1)c1nccs1: 0.5
- CC(C)[C@@H]1NC(=O)[C@@H]2[C@H](C)CCN2C(=O)CN/C(=N\[C@H](C(=O)N[C@H](C(=O)N[C@H](CC(=O)N2CCSCC2)c2nccs2)[C@@H](C)c2ccccc2)C(C)(C)C)[C@H](C(C)(C)C)NC1=O: 8
- C#CCNC(=O)C[C@@H](NC(=O)[C@@H](NC(=O)[C@@H](/N=C1\NCC(=O)N2CC[C@@H](C)[C@H]2C(=O)N[C@@H](C(C)C)C(=O)N[C@H]1C(C)(C)C)C(C)(C)C)[C@@H](C)c1ccccc1)c1nccs1: 8

----------
# maps each entry to its Activity
# Test system: Staphylococcus aureus
# procedureText: Antimicrobial activity against methicillin-resistant Staphylococcus aureus assessed as rate of residual activity
# Type: functional
# Design: concentration or dose not given beside the values
readoutName: Activity (%)

- C#CCN1CCN(C(=O)C[C@@H](NC(=O)[C@@H](NC(=O)[C@@H](/N=C2\NCC(=O)N3CC[C@@H](C)[C@H]3C(=O)N[C@@H](C(C)C)C(=O)N[C@H]2C(C)(C)C)C(C)(C)C)[C@@H](C)c2ccccc2)c2nccs2)CC1: 67
- CC(C)[C@@H]1NC(=O)[C@@H]2[C@H](C)CCN2C(=O)CN/C(=N\[C@H](C(=O)N[C@H](C(=O)N[C@H](CC(=O)N2CCN(C(=O)OC(C)(C)C)CC2)c2nccs2)[C@@H](C)c2ccccc2)C(C)(C)C)[C@H](C(C)(C)C)NC1=O: 42
- CCCC(=O)C[C@@H](NC(=O)[C@@H](NC(=O)[C@@H](/N=C1\NCC(=O)N2CC[C@@H](C)[C@H]2C(=O)N[C@@H](C(C)C)C(=O)N[C@H]1C(C)(C)C)C(C)(C)C)[C@@H](C)c1ccccc1)c1nccs1: 100
- COC(=O)C[C@@H](NC(=O)[C@@H](NC(=O)[C@@H](/N=C1\NCC(=O)N2CC[C@@H](C)[C@H]2C(=O)N[C@@H](C(C)C)C(=O)N[C@H]1C(C)(C)C)C(C)(C)C)[C@@H](C)c1ccccc1)c1nccs1: 0

----------
# maps each entry to its MIC
# Tested on: Enterococcus faecium
# procedureText: Antimicrobial activity against Enterococcus faecium NCTC 12201 by standard serial-dilution technique
# Assay type: functional
readoutName: MIC (µg/mL)

• CCCSC(=O)C[C@@H](NC(=O)[C@@H](NC(=O)[C@@H](/N=C1\NCC(=O)N2CC[C@@H](C)[C@H]2C(=O)N[C@@H](C(C)C)C(=O)N[C@H]1C(C)(C)C)C(C)(C)C)[C@@H](C)c1ccccc1)c1nccs1 = 1
• C#CCNC(=O)C[C@@H](NC(=O)[C@@H](NC(=O)[C@@H](/N=C1\NCC(=O)N2CC[C@@H](C)[C@H]2C(=O)N[C@@H](C(C)C)C(=O)N[C@H]1C(C)(C)C)C(C)(C)C)[C@@H](C)c1ccccc1)c1nccs1 = 4

----------
# Test system: Staphylococcus aureus
# procedureText: Antimicrobial activity against methicillin-resistant Staphylococcus aureus assessed as rate of residual activity
# Type: functional
# Design: concentration or dose not given beside the values
readoutName: Activity (%)

- CC(C)[C@@H]1NC(=O)[C@@H]2[C@H](C)CCN2C(=O)CN/C(=N\[C@H](C(=O)N[C@H](C(=O)N[C@H](CNC(=O)N2CCSC2)c2nccs2)[C@@H](C)c2ccccc2)C(C)(C)C)[C@H](C(C)(C)C)NC1=O: 100
- CCC(=O)C[C@@H](NC(=O)[C@@H](NC(=O)[C@@H](/N=C1\NCC(=O)N2CC[C@@H](C)[C@H]2C(=O)N[C@@H](C(C)C)C(=O)N[C@H]1C(C)(C)C)C(C)(C)C)[C@@H](C)c1ccccc1)c1nccs1: 100
- CC(C)[C@@H]1NC(=O)[C@@H]2[C@H](C)CCN2C(=O)CN/C(=N\[C@H](C(=O)N[C@H](C(=O)N[C@H](CC(=O)N2CCSCC2)c2nccs2)[C@@H](C)c2ccccc2)C(C)(C)C)[C@H](C(C)(C)C)NC1=O: 100
- CCSC(=O)C[C@@H](NC(=O)[C@@H](NC(=O)[C@@H](/N=C1\NCC(=O)N2CC[C@@H](C)[C@H]2C(=O)N[C@@H](C(C)C)C(=O)N[C@H]1C(C)(C)C)C(C)(C)C)[C@@H](C)c1ccccc1)c1nccs1: 0
